These entries and their values trace back to PubChem BioAssay (EPA / NIEHS).

# protocol-summary: ATG_GLI_CIS: Attagene CIS-FACTORIAL HepG2 Assay for human Zinc Finger Protein GLI1 (AID 2282945)
# particulars: HepG2, Attagene cis-factorial reporter mRNA, GLI element; actives raise or lower the signal
Calls of active or inactive are those of the source. Rule for the calls: active = hit-call score of the fitted dose curve at least 0.9, where 1 is the maximum; inactive = score below 0.9.
Parameter call: string, one of 1 for active, -1 for inactive

Before answering, review these 5 worked examples.
>>> discrete_label("COc1ccc(N)cc1")
-1
>>> discrete_label("O=C(Cc1ccccc1)OCCc1ccccc1")
-1
>>> discrete_label("COC(F)(C(F)(F)C(F)(F)F)C(F)(C(F)(F)F)C(F)(F)F (stereo unspecified)")
-1
>>> discrete_label("C=CCOC(N)=O")
-1
>>> discrete_label("CN(C)CCN(C)C")
-1

Kindly provide the recorded test outcome for the following molecule: CC(C)(C1CCC(O)CC1)C1CCC(O)CC1 (stereo unspecified) -1

Would you mind telling me which call this test gave CCNc1nc(NCC)nc(SC)n1 ? -1

Per the records of this test, what outcome belongs to CCCCCCCCBr ? -1

Check the results log: what was the call for C=CCc1ccccc1O ? -1

Status in this test for O=C(NC(=O)c1c(F)cccc1F)Nc1ccc(Cl)cc1 ? -1

Status in this test for C=CCOC(F)(C(F)(F)F)C(F)(F)F ? -1

Please let me know the test result on file for CC[N+](CC)(CC)CC . -1
